SYSTEM: human Eg5 motor domain (Homo sapiens)
Sequence (P52732 18-359 limits assumed): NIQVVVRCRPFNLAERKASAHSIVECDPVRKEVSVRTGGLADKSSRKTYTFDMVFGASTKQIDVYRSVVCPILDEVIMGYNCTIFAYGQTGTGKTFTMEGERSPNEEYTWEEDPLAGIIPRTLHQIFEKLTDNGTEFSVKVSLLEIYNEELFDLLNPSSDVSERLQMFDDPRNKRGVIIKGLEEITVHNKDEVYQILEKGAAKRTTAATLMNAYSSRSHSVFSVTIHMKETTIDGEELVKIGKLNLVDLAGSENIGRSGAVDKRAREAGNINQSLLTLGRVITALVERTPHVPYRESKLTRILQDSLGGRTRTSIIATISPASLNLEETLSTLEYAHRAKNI
pIC50: −log10 of the molar value.
PARAMETER_MEASURED: pIC50

Please fill in: pIC50 reported for CC(=O)N1N=C(NC(=O)C(C)(C)C)SC1(CNS(=O)(=O)CCN(C)C)c1ccccc1 (centres unmarked) = ≥ 5.70

Please fill in: pIC50 reported for CC(C)(C)C(=O)NC1=NN(C(=O)C(C)(C)C)C(CNS(C)(=O)=O)(c2ccccc2)S1 (centres unmarked) = ≥ 5.70

Please fill in: pIC50 reported for CC(C)(C)C(=O)NC1=NN(C(=O)C(C)(C)C)C(CCN)(c2ccccc2)S1 (centres unmarked) = ≥ 5.70

Please fill in: pIC50 reported for CC(C)C(=O)NC1=NN(C(=O)C(C)C)C(CCNS(C)(=O)=O)(c2ccccc2)S1 (centres unmarked) = ≥ 5.70

Please fill in: pIC50 reported for CCNCCS(=O)(=O)NCC1(c2ccccc2)SC(NC(=O)C(C)(C)C)=NN1C(=O)C(C)(C)C (centres unmarked) = ≥ 5.70

Please fill in: pIC50 reported for CC(C)(C)C(=O)NC1=NN(C(=O)C(C)(C)C)C(CCC(N)=O)(c2ccccc2)S1 (centres unmarked) = ≥ 5.70

Please fill in: pIC50 reported for CC(C)(C)C(=O)NC1=NN(C(=O)C(C)(C)C)C(CCC(=O)NCCO)(c2ccccc2)S1 (centres unmarked) = ≥ 5.70

Please fill in: pIC50 reported for CCS(=O)(=O)NCC1(c2ccccc2)SC(NC(=O)C(C)(C)C)=NN1C(=O)C(C)(C)C (centres unmarked) = ≥ 5.70
